details: 298.15 K; 101.33 kPa; Liquid
± gives the expanded uncertainty stated by the source.
Endpoint label: mass density

>>> df
                                   compound        result_value
0  CCCC[n+]1cccc(C)c1.O=S(=O)([N-]S(=O)(=O)C(F)(F)F)C(F)(F)F  1412.8 ± 1.7 kg/m3
1  CCCC[n+]1ccccc1.O=S(=O)([N-]S(=O)(=O)C(F)(F)F)C(F)(F)F [1-butylpyridinium bis[(trifluoromethyl)sulfonyl]imide]  1448.7 ± 1.8 kg/m3
2  CCCCCC[n+]1ccccc1.O=S(=O)([N-]S(=O)(=O)C(F)(F)F)C(F)(F)F [1-hexylpyridinium bis(trifluromethylsulfonyl)imide]  1394.2 ± 1.7 kg/m3
3  CCCC[n+]1ccc(C)cc1.O=S(=O)([N-]S(=O)(=O)C(F)(F)F)C(F)(F)F  1412.2 ± 1.7 kg/m3
4                    CCCCCCCC[n+]1cccc(C)c1  1329.5 ± 1.6 kg/m3
5  CCC[n+]1cccc(C)c1.O=S(=O)([N-]S(=O)(=O)C(F)(F)F)C(F)(F)F  1447.5 ± 1.8 kg/m3

----------
conditions: 288.15 K; 101.33 kPa; Liquid
Endpoint label: mass density (kg/m3)

>>> print(df.to_string())
                                   molecule  result_value
0  CCC[n+]1cccc(C)c1.O=S(=O)([N-]S(=O)(=O)C(F)(F)F)C(F)(F)F        1457.5
1                    CCCCCCCC[n+]1cccc(C)c1        1338.2
2  CCCC[n+]1ccc(C)cc1.O=S(=O)([N-]S(=O)(=O)C(F)(F)F)C(F)(F)F        1421.6
3  CCCC[n+]1ccccc1.O=S(=O)([N-]S(=O)(=O)C(F)(F)F)C(F)(F)F [1-butylpyridinium bis[(trifluoromethyl)sulfonyl]imide]        1458.1
4  CCCCCC[n+]1ccccc1.O=S(=O)([N-]S(=O)(=O)C(F)(F)F)C(F)(F)F [1-hexylpyridinium bis(trifluromethylsulfonyl)imide]        1403.2
5  CCCC[n+]1cccc(C)c1.O=S(=O)([N-]S(=O)(=O)C(F)(F)F)C(F)(F)F        1421.9

----------
details: 288.15 K; 101.33 kPa; Liquid
# viscosity per entry
Endpoint label: viscosity (mPa·s)

>>> print(df.to_string())
                                   compound  result_value
0  CCCCCC[n+]1ccccc1.O=S(=O)([N-]S(=O)(=O)C(F)(F)F)C(F)(F)F [1-hexylpyridinium bis(trifluromethylsulfonyl)imide]        167.56
1  CCCC[n+]1ccc(C)cc1.O=S(=O)([N-]S(=O)(=O)C(F)(F)F)C(F)(F)F         93.27
2  CCCC[n+]1ccccc1.O=S(=O)([N-]S(=O)(=O)C(F)(F)F)C(F)(F)F [1-butylpyridinium bis[(trifluoromethyl)sulfonyl]imide]        100.65
3  CCC[n+]1cccc(C)c1.O=S(=O)([N-]S(=O)(=O)C(F)(F)F)C(F)(F)F         89.22
4  CCCCCCCC[n+]1cccc(C)c1 [1-octyl-3-methylpyridinium]        204.35

----------
# viscosity per entry
settings: 308.15 K; 101.33 kPa; Liquid
± gives the expanded uncertainty stated by the source.
Endpoint label: viscosity

>>> df
                                   molecule        result_value
0  CCC[n+]1cccc(C)c1.O=S(=O)([N-]S(=O)(=O)C(F)(F)F)C(F)(F)F  36.15 ± 0.53 mPa·s
1  CCCC[n+]1ccc(C)cc1.O=S(=O)([N-]S(=O)(=O)C(F)(F)F)C(F)(F)F  36.67 ± 0.54 mPa·s
2                    CCCCCCCC[n+]1cccc(C)c1   70.72 ± 1.4 mPa·s
3  CCCC[n+]1ccccc1.O=S(=O)([N-]S(=O)(=O)C(F)(F)F)C(F)(F)F [1-butylpyridinium bis[(trifluoromethyl)sulfonyl]imide]  40.09 ± 0.58 mPa·s
4  CCCCCC[n+]1ccccc1.O=S(=O)([N-]S(=O)(=O)C(F)(F)F)C(F)(F)F [1-hexylpyridinium bis(trifluromethylsulfonyl)imide]  59.86 ± 0.75 mPa·s

----------
conditions: 363.15 K; 101.33 kPa; Liquid
Assign labels as follows, please: T for viscosity below 9 mPa·s; F for viscosity equal to or exceeding 9 mPa·s.

                                   compound  label
0  CCC[n+]1cccc(C)c1.O=S(=O)([N-]S(=O)(=O)C(F)(F)F)C(F)(F)F      T
1  CCCC[n+]1ccc(C)cc1.O=S(=O)([N-]S(=O)(=O)C(F)(F)F)C(F)(F)F      T
2  CCCCCC[n+]1ccccc1.O=S(=O)([N-]S(=O)(=O)C(F)(F)F)C(F)(F)F [1-hexylpyridinium bis(trifluromethylsulfonyl)imide]      F
3                    CCCCCCCC[n+]1cccc(C)c1      F
4  CCCC[n+]1ccccc1.O=S(=O)([N-]S(=O)(=O)C(F)(F)F)C(F)(F)F [1-butylpyridinium bis[(trifluoromethyl)sulfonyl]imide]      T

----------
details: 333.15 K; 101.33 kPa; Liquid
Label Fulfilled for high-side viscosity (at or above 20 mPa·s) and Not fulfilled for low-side viscosity (below it).

In [3]: df
Out[3]:
                                   molecule          label
0  CCC[n+]1cccc(C)c1.O=S(=O)([N-]S(=O)(=O)C(F)(F)F)C(F)(F)F  Not fulfilled
1  CCCC[n+]1ccccc1.O=S(=O)([N-]S(=O)(=O)C(F)(F)F)C(F)(F)F [1-butylpyridinium bis[(trifluoromethyl)sulfonyl]imide]  Not fulfilled
2  CCCCCC[n+]1ccccc1.O=S(=O)([N-]S(=O)(=O)C(F)(F)F)C(F)(F)F [1-hexylpyridinium bis(trifluromethylsulfonyl)imide]      Fulfilled
3  CCCC[n+]1ccc(C)cc1.O=S(=O)([N-]S(=O)(=O)C(F)(F)F)C(F)(F)F  Not fulfilled
4  CCCCCCCC[n+]1cccc(C)c1 [1-octyl-3-methylpyridinium]      Fulfilled

----------
details: 343.15 K; 101.33 kPa; Liquid
# viscosity per entry
Endpoint label: viscosity (mPa·s)

>>> print(df.to_string())
                                   compound  endpoint_label  result_value
0  CCC[n+]1cccc(C)c1.O=S(=O)([N-]S(=O)(=O)C(F)(F)F)C(F)(F)F       viscosity         12.31
1  CCCC[n+]1ccccc1.O=S(=O)([N-]S(=O)(=O)C(F)(F)F)C(F)(F)F [1-butylpyridinium bis[(trifluoromethyl)sulfonyl]imide]       viscosity         13.44
2  CCCCCC[n+]1ccccc1.O=S(=O)([N-]S(=O)(=O)C(F)(F)F)C(F)(F)F [1-hexylpyridinium bis(trifluromethylsulfonyl)imide]       viscosity         17.58
3  CCCCCCCC[n+]1cccc(C)c1 [1-octyl-3-methylpyridinium]       viscosity         19.77
4  CCCC[n+]1ccc(C)cc1.O=S(=O)([N-]S(=O)(=O)C(F)(F)F)C(F)(F)F       viscosity         12.13

----------
settings: 323.15 K; 101.33 kPa; Liquid
Endpoint label: viscosity (mPa·s)

                                   compound  result_value
0  CCCC[n+]1ccccc1.O=S(=O)([N-]S(=O)(=O)C(F)(F)F)C(F)(F)F [1-butylpyridinium bis[(trifluoromethyl)sulfonyl]imide]         23.59
1  CCCCCC[n+]1ccccc1.O=S(=O)([N-]S(=O)(=O)C(F)(F)F)C(F)(F)F [1-hexylpyridinium bis(trifluromethylsulfonyl)imide]         33.04
2  CCCC[n+]1ccc(C)cc1.O=S(=O)([N-]S(=O)(=O)C(F)(F)F)C(F)(F)F         21.45
3                    CCCCCCCC[n+]1cccc(C)c1         38.14
4  CCC[n+]1cccc(C)c1.O=S(=O)([N-]S(=O)(=O)C(F)(F)F)C(F)(F)F         21.43

----------
details: 303.15 K; 101.33 kPa; Liquid
Endpoint label: viscosity (mPa·s)

In [3]: df
Out[3]:
                                   molecule  result_value
0                    CCCCCCCC[n+]1cccc(C)c1          89.6
1  CCCCCC[n+]1ccccc1.O=S(=O)([N-]S(=O)(=O)C(F)(F)F)C(F)(F)F [1-hexylpyridinium bis(trifluromethylsulfonyl)imide]         75.22
2  CCCC[n+]1ccccc1.O=S(=O)([N-]S(=O)(=O)C(F)(F)F)C(F)(F)F [1-butylpyridinium bis[(trifluoromethyl)sulfonyl]imide]         49.15
3  CCC[n+]1cccc(C)c1.O=S(=O)([N-]S(=O)(=O)C(F)(F)F)C(F)(F)F         44.22
4  CCCC[n+]1ccc(C)cc1.O=S(=O)([N-]S(=O)(=O)C(F)(F)F)C(F)(F)F         45.07
